SYSTEM TESTED: recombinant human PREP (Homo sapiens, UniProt P48147)
Construct: purchased R&D System
Sequence (P48147 whole entry): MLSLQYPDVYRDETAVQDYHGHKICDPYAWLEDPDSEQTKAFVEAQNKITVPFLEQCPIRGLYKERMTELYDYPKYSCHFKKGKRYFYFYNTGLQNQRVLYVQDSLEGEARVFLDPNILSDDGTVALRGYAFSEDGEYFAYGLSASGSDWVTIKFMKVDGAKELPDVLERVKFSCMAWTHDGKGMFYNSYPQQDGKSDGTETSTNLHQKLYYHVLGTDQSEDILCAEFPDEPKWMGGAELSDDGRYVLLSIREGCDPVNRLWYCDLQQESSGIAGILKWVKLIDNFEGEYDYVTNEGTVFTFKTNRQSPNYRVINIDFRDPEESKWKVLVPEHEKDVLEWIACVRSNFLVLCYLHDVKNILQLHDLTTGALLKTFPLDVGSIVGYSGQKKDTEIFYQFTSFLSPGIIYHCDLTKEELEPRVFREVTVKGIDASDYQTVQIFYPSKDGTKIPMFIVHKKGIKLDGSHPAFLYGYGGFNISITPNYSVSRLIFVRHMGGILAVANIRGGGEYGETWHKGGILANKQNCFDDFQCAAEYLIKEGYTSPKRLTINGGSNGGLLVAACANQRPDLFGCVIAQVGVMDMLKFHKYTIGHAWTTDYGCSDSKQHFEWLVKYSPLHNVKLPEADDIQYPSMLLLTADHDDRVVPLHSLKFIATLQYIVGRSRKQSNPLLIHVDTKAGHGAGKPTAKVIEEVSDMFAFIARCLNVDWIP
TEST PROTOCOL: PREP inhibition, fluorogenic substrate Z-Gly-Pro-AMC
Assay type: biochemical
STATED CONDITIONS: Inhibitory Activity (IC50, nM) PREP, recombinant human PREP
compounds and their reported IC50
Value expressed in nM; do not type the unit.

COMPOUND	IC50 / nM
N#C[C@@H]1CCCN1C(=O)CN1CC[C@H](Nc2cnc3ccccc3c2)C1 [Example 229]	4840
N#C[C@@H]1C[C@H](F)CN1C(=O)CN1CCC(Oc2cncc3ccccc23)CC1 [Example 420]	1740
CN(c1cccc2cnccc12)C1CCN(CC(=O)N2CCC[C@H]2C#N)CC1 [Example 313]	9360
N#C[C@@H]1CCCN1C(=O)CN1CC[C@@H](Nc2ccc(OC(F)(F)F)c3ncccc23)C1 [Example 202]	8080
N#C[C@@H]1C[C@H](F)CN1C(=O)CN1CC[C@@H](Nc2cccc3ncccc23)C1 [Example 166]	769

# input compound: N#C[C@@H]1C[C@H](F)CN1C(=O)CN1CC[C@H](Nc2cnc3ccccc3c2)C1 [Example 249] ; wanted: its IC50
1050

Next compound up: COc1cc2nc(Cl)nc(NC3CCN(CC(=O)N4CCC[C@H]4C#N)CC3)c2cc1OC [Example 358]
11800

Next compound up: N#C[C@@H]1C[C@H](F)CN1C(=O)CN1CC[C@H](Nc2ccc(OCc3ccccc3)c3ncccc23)C1 [Example 268]
3520

Next compound up: N#Cc1ccc2c(N[C@H]3CCN(CC(=O)N4CCC[C@H]4C#N)C3)cccc2n1 [Example 231]
11500

Next compound up: Cc1ccc(N[C@H]2CCN(CC(=O)N3C[C@@H](F)C[C@H]3C#N)C2)c2cccnc12 [Example 262]
1850

Next compound up: N#C[C@@H]1CCCN1C(=O)CN1CCC(NC(=O)c2cccc3cccnc23)CC1 [Example 301]
36000

Next compound up: CNC(=O)c1ccc(N[C@H]2CCN(CC(=O)N3CCC[C@H]3C#N)C2)c2cccnc12 [Example 286]
6300

Next compound up: Cc1cccc2c(NC3CCN(CC(=O)N4CCC[C@H]4C#N)CC3)nc(Cl)nc12 [Example 359]
6000

Next compound up: CCOc1ccc(N[C@H]2CCN(CC(=O)N3C[C@@H](F)C[C@H]3C#N)C2)c2cccnc12 [Example 275]
6120

Next compound up: N#C[C@@H]1C[C@H](F)CN1C(=O)CN1CC[C@@H](Nc2cccc3ncc(Cl)cc23)C1 [Example 185]
3550
